Molecular target: HCV NS5B RdRp genotype 1b (Hepatitis C virus genotype 1b)
Construct: The protein was expressed with an 18 amino acid C-terminal truncation to enhance the solubility
Sequence (Q9WMX2 2420-2992): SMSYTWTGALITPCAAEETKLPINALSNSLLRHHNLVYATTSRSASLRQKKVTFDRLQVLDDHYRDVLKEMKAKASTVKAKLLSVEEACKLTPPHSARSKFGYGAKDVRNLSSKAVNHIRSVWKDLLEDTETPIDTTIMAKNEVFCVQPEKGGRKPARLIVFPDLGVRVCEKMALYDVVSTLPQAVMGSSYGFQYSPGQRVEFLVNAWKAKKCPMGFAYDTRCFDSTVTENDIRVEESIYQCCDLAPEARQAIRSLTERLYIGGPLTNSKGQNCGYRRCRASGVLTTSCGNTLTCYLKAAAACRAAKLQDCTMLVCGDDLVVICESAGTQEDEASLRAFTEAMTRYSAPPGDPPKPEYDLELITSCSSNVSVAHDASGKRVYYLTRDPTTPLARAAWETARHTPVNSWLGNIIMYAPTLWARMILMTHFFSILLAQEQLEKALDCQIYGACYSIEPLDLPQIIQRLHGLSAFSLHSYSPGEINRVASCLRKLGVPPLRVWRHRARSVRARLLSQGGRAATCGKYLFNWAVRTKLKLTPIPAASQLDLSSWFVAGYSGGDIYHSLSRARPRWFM
Experiment: Modified HCV NS5B RdRp enzyme assay (preincubation protocol)
REPORTED METRIC: pIC50
One number for each entry, as −log10 of the molar value.

Below, 6 compounds whose answers are already recorded.
CN(C)S(=O)(=O)NC(=O)c1ccc2c(C3CCCCC3)c3n(c2c1)Cc1nccn1-c1ccccc1-3: 7.72
O=C(O)c1ccc2c(C3CCCCC3)c3n(c2c1)Cc1nncn1-c1ccccc1-3: 6.85
Cc1nnc2n1-c1ccccc1-c1c(C3CCCCC3)c3ccc(C(=O)NS(=O)(=O)N(C)C)cc3n1C2: 7.27
O=C(O)c1ccc2c(C3CCCCC3)c3n(c2c1)Cc1nccn1-c1ccccc1-3: 7.59
CN(C)S(=O)(=O)NC(=O)c1ccc2c(C3CCCCC3)c3n(c2c1)Cc1nncn1-c1ccccc1-3: 7.70
Cc1cn2c(n1)Cn1c(c(C3CCCCC3)c3ccc(C(=O)O)cc31)-c1ccccc1-2: 6.89

I'm hoping you can list pIC50 for every compound here, please.
1. Cc1nnc2n1-c1ccccc1-c1c(C3CCCCC3)c3ccc(C(=O)O)cc3n1C2
2. Cc1cn2c(n1)Cn1c(c(C3CCCCC3)c3ccc(C(=O)NS(=O)(=O)N(C)C)cc31)-c1ccccc1-2

RESULT:
1. 6.77
2. 7.48

* * *

Tested on: HCV replicon cells
Assay: HCV replicon FRET assay
Format: cell-based
Settings: Hepatitis C virus
pEC50: −log10 of the molar value.
Response key: 1 (yes) means pEC50 >= 6; 0 (no) means pEC50 < 6.

CN(C)S(=O)(=O)NC(=O)c1ccc2c(C3CCCCC3)c3n(c2c1)Cc1nncn1-c1ccccc1-3: 1 (yes)
Cc1nnc2n1-c1ccccc1-c1c(C3CCCCC3)c3ccc(C(=O)NS(=O)(=O)N(C)C)cc3n1C2: 1 (yes)
Cc1cn2c(n1)Cn1c(c(C3CCCCC3)c3ccc(C(=O)O)cc31)-c1ccccc1-2: 0 (no)

QUERY: Could you verify whether the entry CN(C)S(=O)(=O)NC(=O)c1ccc2c(C3CCCCC3)c3n(c2c1)Cc1nccn1-c1ccccc1-3 shows pEC50 of no less than 6?
RESULT: 1 (yes)

* * *

System: HCV replicon cells
Test: HCV replicon FRET assay
Assay type: cell-based
Details: Hepatitis C virus
I'd appreciate it if you could supply EC50 values for the items below.
Include the unit right after the number.

Cc1cn2c(n1)Cn1c(c(C3CCCCC3)c3ccc(C(=O)NS(=O)(=O)N(C)C)cc31)-c1ccccc1-2 [Example 8]: 710 nM
O=C(O)c1ccc2c(C3CCCCC3)c3n(c2c1)Cc1nccn1-c1ccccc1-3 [Example 5]: 740 nM
Cc1nnc2n1-c1ccccc1-c1c(C3CCCCC3)c3ccc(C(=O)O)cc3n1C2 [Example 3]: 770 nM

Next:
The recorded EC50 for entry O=C(O)c1ccc2c(C3CCCCC3)c3n(c2c1)Cc1nncn1-c1ccccc1-3 [Example 1] equals 910 nM
